Target: Transient receptor potential cation channel subfamily V member 1 (Homo sapiens)
Assay: Antagonist activity at human TRPV1 inhibition of capsaicin-induced channel activation at <= 30 uM
Details: dose microM <=30
The source made the active and inactive calls. No cut-off for these calls is given here.
READOUT_KIND: Activity

A selection of reference data follows.
1) CCOC(=O)c1sc(-c2cccc(F)c2)nc1C#CCCCC(=O)O    inactive
2) CCOC(=O)CCCC#Cc1nc(-c2cccc(F)c2)sc1C(=O)OCC    inactive
3) CCOC(=O)/C=C/Oc1nc(-c2ccc(C)cc2)sc1C(=O)OCC    inactive
4) O=C(O)CCCc1cc2nc(-c3cccc(F)c3)sc2c(=O)[nH]1    inactive
5) CCOC(=O)CCCc1[nH]nnc1-c1nc(-c2cccc(F)c2)sc1C(=O)OCC    inactive

For the next question, use this compound.
Tested on Transient receptor potential cation channel subfamily V member 1 (Homo sapiens): O=C(O)CCCc1cc2nc(-c3cccc(F)c3)sc2c(=O)o1 . Observed Activity: inactive

----------
Assay: Metabolic stability in human liver microsomes assessed as half life in presence of NADPH
Type: ADME, Microsome
READOUT_KIND: half-life

CCOC(=O)/C=C/Oc1nc(-c2ccc(C)cc2)sc1C(=O)OCC yielded half-life of < 10 min

----------
Target: Transient receptor potential cation channel subfamily M member 8 (Homo sapiens, UniProt Q7Z2W7)
Sequence (Q7Z2W7 whole entry): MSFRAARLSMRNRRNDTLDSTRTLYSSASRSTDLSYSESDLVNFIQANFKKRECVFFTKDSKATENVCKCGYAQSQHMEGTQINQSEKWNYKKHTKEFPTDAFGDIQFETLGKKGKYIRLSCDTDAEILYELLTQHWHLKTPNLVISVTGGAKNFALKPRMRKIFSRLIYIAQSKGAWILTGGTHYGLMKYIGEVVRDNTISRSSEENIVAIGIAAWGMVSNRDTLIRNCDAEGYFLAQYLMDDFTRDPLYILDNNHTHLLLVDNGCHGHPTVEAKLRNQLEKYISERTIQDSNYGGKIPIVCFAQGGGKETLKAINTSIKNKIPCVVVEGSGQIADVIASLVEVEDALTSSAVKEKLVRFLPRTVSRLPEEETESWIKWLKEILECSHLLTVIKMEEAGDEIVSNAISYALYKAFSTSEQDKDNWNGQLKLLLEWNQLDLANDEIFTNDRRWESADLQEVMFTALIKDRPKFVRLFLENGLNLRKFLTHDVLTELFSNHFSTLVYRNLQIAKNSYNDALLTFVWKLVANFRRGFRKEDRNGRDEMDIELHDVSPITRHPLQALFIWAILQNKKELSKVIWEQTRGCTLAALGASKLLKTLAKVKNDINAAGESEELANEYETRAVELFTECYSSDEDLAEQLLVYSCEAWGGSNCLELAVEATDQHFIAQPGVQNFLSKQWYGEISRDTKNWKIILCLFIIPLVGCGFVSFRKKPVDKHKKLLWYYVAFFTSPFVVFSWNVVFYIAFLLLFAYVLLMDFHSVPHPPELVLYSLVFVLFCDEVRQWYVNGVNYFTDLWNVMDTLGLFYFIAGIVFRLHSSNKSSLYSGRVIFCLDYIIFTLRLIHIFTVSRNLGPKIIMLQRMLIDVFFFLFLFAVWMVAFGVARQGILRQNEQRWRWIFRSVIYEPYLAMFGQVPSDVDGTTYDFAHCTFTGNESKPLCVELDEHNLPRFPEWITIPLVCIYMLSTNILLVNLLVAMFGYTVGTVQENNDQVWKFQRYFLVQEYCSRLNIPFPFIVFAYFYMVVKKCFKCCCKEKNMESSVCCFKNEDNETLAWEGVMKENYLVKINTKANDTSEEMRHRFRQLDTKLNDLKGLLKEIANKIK
Experiment: Antagonist activity at recombinant human TRPM8 transfected in HEK293 cells assessed as assessed as inhibition of icilin-induced intracellular calcium flux
READOUT_KIND: IC50 (nM)

I: CCOC(=O)/C=C/Oc1nc(-c2ccc(C)cc2)sc1C(=O)OCC
II: CCOC(=O)c1sc(-c2cccc(F)c2)nc1C#CCCCC(=O)O
Returns: the argument ( I or II ) having the larger IC50. # respond with the chosen item's label
II
(II: 4060 nM, I: 1130 nM)
